Quick reference: viability, T/C of the listed items.
Test system: 695427-040-R-J1-PDC complex spheroid viability
PROCEDURE_SUMMARY: Anticancer human tumor 695427-040-R-J1-PDC patient-derived colon adenocarcinoma cell line growth inhibition [RAS]
PARTICULARS: second compound 0.00949 µM; first compound 3.16 µM; hits give low values
Excerpt: RAS pathway inhibitors in Combinations in Complex Spheroids A high-throughput screen of multi-cell type tumor spheroids was designed to identify active combinations of RAS pathway inhibitors and targeted small molecules. Complex spheroids include a stromal component modeled by human endothelial cells (HUVEC) and fibroblasts modeled by human mesenchymal stem cells (MSCs). […] Compounds. […] If the clinical Cmax for an agent had not been determined, the highest concentration tested was 10 microM. […]
I only need the number, in %, no unit after it.

Below are worked cases with known answers.
{"COMPOUND": "C[C@@H](NC(=O)c1ncnc(N)c1Cl)c1ncc(C(=O)Nc2cc(C(F)(F)F)c(Cl)cn2)s1 + CCn1c(-c2cccnc2C(C)OC)c2c3cc(ccc31)N1CCOC(CC(NC(=O)C(C(C)C)N(C)C(=O)C3(F)CCN(C(=O)C#CC(C)(C)N(C)C)CC3)C(=O)N3CCCC(N3)C(=O)OCC(C)(C)C2)C1", "viability, T/C (%)": 102}
{"COMPOUND": "CC(Nc1ccc2c(c1)OCCn1cc(N3C(=O)OCC3C(F)F)nc1-2)C(N)=O (centres undefined) + CCn1c(-c2cc(N3CCN(C)CC3)cnc2C(C)OC)c2c3cc(ccc31)-c1csc(n1)CC(NC(=O)C1CC1C)C(=O)N1CCCC(N1)C(=O)OCC(C)(C)C2", "viability, T/C (%)": 32.2}
{"COMPOUND": "C[C@@H](NC(=O)c1ncnc(N)c1Cl)c1ncc(C(=O)Nc2cc(C(F)(F)F)c(Cl)cn2)s1 + CCn1c(-c2cc(N3CCN(C)CC3)cnc2C(C)OC)c2c3cc(ccc31)-c1csc(n1)CC(NC(=O)C1CC1C)C(=O)N1CCCC(N1)C(=O)OCC(C)(C)C2", "viability, T/C (%)": 85.6}

Let us move to another entry and its viability, T/C.
input: // returns reported viability, T/C for input NC1c2ccccc2OC12CCN(c1cnc3c(N4CCCc5ncccc54)n[nH]c3n1)CC2 (centres undefined) + CCn1c(-c2cccnc2C(C)OC)c2c3cc(ccc31)N1CCOC(CC(NC(=O)C(C(C)C)N(C)C(=O)C3(F)CCN(C(=O)C#CC(C)(C)N(C)C)CC3)C(=O)N3CCCC(N3)C(=O)OCC(C)(C)C2)C1
output: 54.1

====

Test system: 695427-040-R-J1-PDC complex spheroid viability
PROCEDURE_SUMMARY: Anticancer human tumor 695427-040-R-J1-PDC cell line growth inhibition [RAS];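 further: viability read after seven days of drug exposure; 100% = DMSO vehicle control viability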
PARTICULARS: second compound 0.3 µM; first compound 10 µM; hits give low values
Reported viability, T/C values for the following compounds.
Hi! Could you send only the number? It should be in %, unit omitted.

{"COMPOUND": "Cc1nc(N2CCC3(CC2)COC(C)C3N)c(CO)nc1Sc1ccnc(N)c1Cl (centres undefined) + CCn1c(-c2cccnc2C(C)OC)c2c3cc(ccc31)N1CCOC(CC(NC(=O)C(C(C)C)N(C)C(=O)C3(F)CCN(C(=O)C#CC(C)(C)N(C)C)CC3)C(=O)N3CCCC(N3)C(=O)OCC(C)(C)C2)C1", "EXPERIMENTAL_SYSTEM": "695427-040-R-J1-PDC complex spheroid viability", "viability, T/C (%)": 43.5}

input: Suppose we examine the compound CC1(O)CCCC1n1c(=O)c(C(F)F)cc2cnc(NC3CCN(S(C)(=O)=O)CC3)nc21 (centres undefined) + CCn1c(-c2cccnc2C(C)OC)c2c3cc(ccc31)N1CCOC(CC(NC(=O)C(C(C)C)N(C)C(=O)C3(F)CCN(C(=O)C#CC(C)(C)N(C)C)CC3)C(=O)N3CCCC(N3)C(=O)OCC(C)(C)C2)C1 ; what viability, T/C value has been reported?
output: 49.9

input: Need viability, T/C, item Cc1nc(N2CCC3(CC2)COC(C)C3N)c(CO)nc1Sc1ccnc(N)c1Cl (centres undefined) + CCn1c(-c2cc(N3CCN(C)CC3)cnc2C(C)OC)c2c3cc(ccc31)-c1csc(n1)CC(NC(=O)C1CC1C)C(=O)N1CCCC(N1)C(=O)OCC(C)(C)C2
output: 16

input: // lookup viability, T/C for CC(C)NCC(C(=O)N1CCN(c2ncnc3c2C(C)CC3O)CC1)c1ccc(Cl)cc1 (centres undefined) + CCn1c(-c2cccnc2C(C)OC)c2c3cc(ccc31)N1CCOC(CC(NC(=O)C(C(C)C)N(C)C(=O)C3(F)CCN(C(=O)C#CC(C)(C)N(C)C)CC3)C(=O)N3CCCC(N3)C(=O)OCC(C)(C)C2)C1
output: 56.2

====

System: 695427-040-R-J1-PDC complex spheroid viability
PROCEDURE_SUMMARY: Anticancer human tumor 695427-040-R-J1-PDC cell line growth inhibition [RAS];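 further: viability read after seven days of drug exposure; 100% = DMSO vehicle control viability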
PARTICULARS: second compound 0.01 µM; first compound 0.01 µM; hits give low values
Listed compounds paired with reported viability, T/C
Number only, in %; omit the unit.

A selection of reference data follows.
{"COMPOUND": "Nc1ccn(C2OC(CO)C(O)C2(F)F)c(=O)n1 (stereo not given) + C=CC(=O)N1CCN(c2nc(OCC3CCCN3C)nc3c(F)c(-c4nc(N)cc(C)c4C(F)(F)F)c(Cl)cc23)C(C)C1", "viability, T/C (%)": 87.2}
{"COMPOUND": "O=C(c1ccc(F)c(F)c1Nc1ccc(I)cc1F)N1CC(O)([C@@H]2CCCCN2)C1 + C=CC(=O)N1CCN(c2nc(OCC3CCCN3C)nc3c(F)c(-c4nc(N)cc(C)c4C(F)(F)F)c(Cl)cc23)C(C)C1", "viability, T/C (%)": 74.7}
{"COMPOUND": "CC(C)n1nc(-c2ccc3oc(N)nc3c2)c2c(N)ncnc21 + C=CC(=O)N1CCN(c2nc(OCC3CCCN3C)nc3c(F)c(-c4nc(N)cc(C)c4C(F)(F)F)c(Cl)cc23)C(C)C1", "viability, T/C (%)": 79.9}
{"COMPOUND": "CCN1CCN(Cc2ccc(Nc3ncc(F)c(-c4cc(F)c5nc(C)n(C(C)C)c5c4)n3)nc2)CC1 + C=CC(=O)N1CCN(c2nc(OCC3CCCN3C)nc3c(F)c(-c4nc(N)cc(C)c4C(F)(F)F)c(Cl)cc23)C(C)C1", "viability, T/C (%)": 92.2}

Field: next compound
input: Which measured viability, T/C belongs to C=CC(=O)Nc1cc(Nc2nccc(-c3cn(C)c4ccccc34)n2)c(OC)cc1N(C)CCN(C)C + C=CC(=O)N1CCN(c2nc(OCC3CCCN3C)nc3c(F)c(-c4nc(N)cc(C)c4C(F)(F)F)c(Cl)cc23)C(C)C1 , tested on 695427-040-R-J1-PDC complex spheroid viability?
output: 94.5

====

System: 695427-040-R-J1-PDC complex spheroid viability
PROCEDURE_SUMMARY: Anticancer human tumor 695427-040-R-J1-PDC cell line growth inhibition [RAS];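 further: viability read after seven days of drug exposure; 100% = DMSO vehicle control viability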
PARTICULARS: second compound 0.0949 µM; first compound 0.1 µM; hits give low values
viability, T/C reference
Hi! Could you send only the number? It should be in %, unit omitted.

{"COMPOUND": "Nc1ccn(C2OC(CO)C(O)C2(F)F)c(=O)n1 (stereo not drawn) + CCn1c(-c2cc(N3CCN(C)CC3)cnc2C(C)OC)c2c3cc(ccc31)-c1csc(n1)CC(NC(=O)C1CC1C)C(=O)N1CCCC(N1)C(=O)OCC(C)(C)C2", "EXPERIMENTAL_SYSTEM": "695427-040-R-J1-PDC complex spheroid viability", "viability, T/C, %": 36}
{"COMPOUND": "CC(C)NCC(C(=O)N1CCN(c2ncnc3c2C(C)CC3O)CC1)c1ccc(Cl)cc1 (stereo not drawn) + CCn1c(-c2cccnc2C(C)OC)c2c3cc(ccc31)N1CCOC(CC(NC(=O)C(C(C)C)N(C)C(=O)C3(F)CCN(C(=O)C#CC(C)(C)N(C)C)CC3)C(=O)N3CCCC(N3)C(=O)OCC(C)(C)C2)C1", "EXPERIMENTAL_SYSTEM": "695427-040-R-J1-PDC complex spheroid viability", "viability, T/C, %": 88.7}
{"COMPOUND": "C=CC(=O)Nc1cc(Nc2nccc(-c3cn(C)c4ccccc34)n2)c(OC)cc1N(C)CCN(C)C + CCn1c(-c2cccnc2C(C)OC)c2c3cc(ccc31)N1CCOC(CC(NC(=O)C(C(C)C)N(C)C(=O)C3(F)CCN(C(=O)C#CC(C)(C)N(C)C)CC3)C(=O)N3CCCC(N3)C(=O)OCC(C)(C)C2)C1", "EXPERIMENTAL_SYSTEM": "695427-040-R-J1-PDC complex spheroid viability", "viability, T/C, %": 80.2}
{"COMPOUND": "CC(=O)OC12COC1CC(O)C1(C)C(=O)C(O)C3=C(C)C(OC(=O)C(O)C(NC(=O)OC(C)(C)C)c4ccccc4)CC(O)(C(OC(=O)c4ccccc4)C21)C3(C)C (stereo not drawn) + CCn1c(-c2cc(N3CCN(C)CC3)cnc2C(C)OC)c2c3cc(ccc31)-c1csc(n1)CC(NC(=O)C1CC1C)C(=O)N1CCCC(N1)C(=O)OCC(C)(C)C2", "EXPERIMENTAL_SYSTEM": "695427-040-R-J1-PDC complex spheroid viability", "viability, T/C, %": 36.6}
{"COMPOUND": "CCC(CC)c1cc(NC2CCC(N)C2)n2nccc2n1 (stereo not drawn) + CCn1c(-c2cc(N3CCN(C)CC3)cnc2C(C)OC)c2c3cc(ccc31)-c1csc(n1)CC(NC(=O)C1CC1C)C(=O)N1CCCC(N1)C(=O)OCC(C)(C)C2", "EXPERIMENTAL_SYSTEM": "695427-040-R-J1-PDC complex spheroid viability", "viability, T/C, %": 47.3}

input: Need viability, T/C, item C=CC(=O)Nc1cc(Nc2nccc(-c3cn(C)c4ccccc34)n2)c(OC)cc1N(C)CCN(C)C + CCn1c(-c2cc(N3CCN(C)CC3)cnc2C(C)OC)c2c3cc(ccc31)-c1csc(n1)CC(NC(=O)C1CC1C)C(=O)N1CCCC(N1)C(=O)OCC(C)(C)C2
output: 36.9

input: Query: viability, T/C; subject: CC(Nc1ccc2c(c1)OCCn1cc(N3C(=O)OCC3C(F)F)nc1-2)C(N)=O (stereo not drawn) + CCn1c(-c2cccnc2C(C)OC)c2c3cc(ccc31)N1CCOC(CC(NC(=O)C(C(C)C)N(C)C(=O)C3(F)CCN(C(=O)C#CC(C)(C)N(C)C)CC3)C(=O)N3CCCC(N3)C(=O)OCC(C)(C)C2)C1
output: 67.5

input: Quick check: viability, T/C of CC(C)n1nc(-c2ccc3oc(N)nc3c2)c2c(N)ncnc21 + CCn1c(-c2cccnc2C(C)OC)c2c3cc(ccc31)N1CCOC(CC(NC(=O)C(C(C)C)N(C)C(=O)C3(F)CCN(C(=O)C#CC(C)(C)N(C)C)CC3)C(=O)N3CCCC(N3)C(=O)OCC(C)(C)C2)C1 ?
output: 48.9
